Origin of measurements: patent US12012417B2

- Tested on: Dengue 4 virus MY01-22713
- ASSAY PROCEDURE: High-content imaging cell-based flavivirus immunodetection (HCl-CFI) assay, Dengue 4
- CONDITIONS: Dengue virus, A549, 48 h, read-out: Dengue 4 virus MY01-22713 in A549 using HCl [Inhibitor/IC50] Qualified AC50, A549 cells, 48 h, viral E protein expression
Kindly state EC50 for each of the entries shown.

1. N#Cc1c(NC(=O)Cc2ccc(S(N)(=O)=O)cc2)sc2c1CCN(Cc1ccccc1F)C2 [Example 99]    100 to 1000 nM
2. CC1(C)Cc2sc(NC(=O)Cc3ccccc3)c(C#N)c2CN1CC1CCCCC1 [Example 73]    100 to 1000 nM

List the reported EC50 of each compound below.
1. COc1cc(F)cc(CC(=O)Nc2sc3c(c2C#N)CN(Cc2cccc(F)c2)CC3)c1 [Example 35]
2. CCOc1cc(CC(=O)Nc2sc3c(c2C#N)CN(Cc2cccc(F)c2)CC3)ccc1S(N)(=O)=O [Example 21]
3. Cc1cccc(CN2CCc3c(sc(NC(=O)Cc4ccc(S(N)(=O)=O)cc4)c3C#N)C2)c1C [Example 95]
4. COc1ccccc1CN1CCc2c(sc(NC(=O)Cc3ccc(S(N)(=O)=O)cc3)c2C#N)C1 [Example 94]
5. COc1cc(CC(=O)N(C)c2sc3c(c2C#N)CN(CC2CCCCC2)CC3)ccc1S(N)(=O)=O [Example 48]

1: 100 to 1000 nM; 2: < 100 nM; 3: < 100 nM; 4: 100 to 1000 nM; 5: > 1000 nM

Consider N#Cc1c(NC(=O)Cc2ccc(S(N)(=O)=O)c(F)c2)sc2c1CN(CC1CCCCC1)CC2 [Example 9] . Its measured EC50 is < 100 nM

====

- Test system: Dengue 1 virus MY97-10245
- ASSAY PROCEDURE: High-content imaging cell-based flavivirus immunodetection (HCl-CFI) assay, Dengue 1
- CONDITIONS: Dengue virus, A549, 48 h, read-out: Dengue 1 virus MY97-10245 in A549 using HCl [Inhibitor/IC50] Qualified AC50
pEC50: −log10 of the molar value.
Kindly state pEC50 for each of the entries shown.

1. Cn1cc(S(N)(=O)=O)cc1CC(=O)Nc1sc2c(c1C#N)CN(CC1CCCCC1)CC2 [Example 88]    6.00 to 7.00

List the reported pEC50 of each compound below.
1. COc1cc(CC(=O)Nc2sc3c(c2C#N)CN(CC2CCCCC2)CC3)ccc1S(N)(=O)=O [Example 7]
2. N#Cc1c(NC(=O)Cc2ccc(S(N)(=O)=O)cc2)sc2c1CCN(Cc1ccc(F)cc1)C2 [Example 101]

1. > 7.00
2. 6.00 to 7.00

Reading of pEC50 for COP(C)(=O)c1ccc(CC(=O)Nc2sc3c(c2C#N)CN(Cc2cccc(F)c2)CC3)cc1 (stereo not shown) [Example 44] with Dengue 1 virus MY97-10245: < 6.00

====

- Tested on: Dengue 4 virus MY01-22713
- ASSAY PROCEDURE: High-content imaging cell-based flavivirus immunodetection (HCl-CFI) assay, Dengue 4
- CONDITIONS: Dengue virus, A549, 48 h, read-out: Dengue 4 virus MY01-22713 in A549 using HCl [Inhibitor/IC50] Qualified AC50, A549 cells, 48 h, viral E protein expression
pEC50: −log10 of the molar value. Structures can show the parent of a compound that is named as a salt.
QUANTITY MEASURED: pEC50

Below: 6 molecules and their reported pEC50.
1) N#Cc1c(NC(=O)Cc2ccc(S(N)(=O)=O)cc2)sc2c1CN(CC1CC(F)(F)C1)CC2 [Example 2]    6.00 to 7.00
2) CC(c1ccccc1)N1CCc2c(sc(NC(=O)Cc3ccc(S(N)(=O)=O)cc3)c2C#N)C1 (stereo not shown) [Example 90, hydrochloride]    6.00 to 7.00
3) N#Cc1c(NC(=O)Cc2ccc(S(N)(=O)=O)s2)sc2c1CN(CC1CCCCC1)CC2 [Example 84]    > 7.00
4) N#Cc1c(NC(=O)Cc2ccc3c(c2)CNC3)sc2c1CN(Cc1cccc(F)c1)CC2 [Example 26]    < 6.00
5) CC1(C)Cc2sc(NC(=O)Cc3ccc(S(N)(=O)=O)cc3)c(C#N)c2CN1Cc1cccc(F)c1 [Example 81]    > 7.00
6) N#Cc1c(NC(=O)Cc2ccc(S(N)(=O)=O)cc2)sc2c1CCN(Cc1c(F)cccc1Cl)C2 [Example 111]    > 7.00

Would you kindly look at the next entry?
Consider CC1(C)CS(=O)(=O)c2ccc(CC(=O)Nc3sc4c(c3C#N)CN(Cc3cccc(F)c3)C(C)(C)C4)cc21 [Example 80] . Its measured pEC50 is > 7.00

====

- Test system: Dengue 3 virus MY05-34640-WT-C6/36
- ASSAY PROCEDURE: High-content imaging cell-based flavivirus immunodetection (HCl-CFI) assay, Dengue 3
- CONDITIONS: Dengue virus, A549, 48 h, read-out: Dengue 3 virus MY05-34640-WT-C6/36 in A549 using HCl [Inhibitor/IC50] Qualified AC50
QUANTITY MEASURED: EC50

List the reported EC50 of each compound below.
1. N#Cc1c(NC(=O)Cc2ccc(S(N)(=O)=O)cc2)sc2c1CN(CC13CC(F)(C1)C3)CC2
2. CC1(C)CS(=O)(=O)c2ccc(CC(=O)Nc3sc4c(c3C#N)CN(CC3CCCCC3)C(C)(C)C4)cc21
3. N#Cc1c(NC(=O)Cc2ccc(S(=O)(=O)C(F)F)cc2)sc2c1CN(Cc1cccc(F)c1)CC2
4. Cn1cc(S(N)(=O)=O)cc1CC(=O)Nc1sc2c(c1C#N)CN(CC1CCCCC1)CC2
5. N#Cc1c(NC(=O)Cc2ccc(S(N)(=O)=O)cc2)sc2c1CCN(Cc1c(F)cccc1Cl)C2
6. CCOc1cc(CC(=O)Nc2sc3c(c2C#N)CN(CC2CC(F)(F)C2)C(C)(C)C3)ccc1S(N)(=O)=O

["100 to 1000 nM", "< 100 nM", "100 to 1000 nM", "< 100 nM", "< 100 nM", "< 100 nM"]

====

- Tested on: Dengue 3 virus MY05-34640-WT-C6/36
- ASSAY PROCEDURE: High-content imaging cell-based flavivirus immunodetection (HCl-CFI) assay, Dengue 3
- CONDITIONS: Dengue virus, A549, 48 h, read-out: Dengue 3 virus MY05-34640-WT-C6/36 in A549 using HCl [Inhibitor/IC50] Qualified AC50
pEC50: −log10 of the molar value. Structures can show the parent of a compound that is named as a salt.
Kindly state pEC50 for each of the entries shown.

Below: 2 molecules and their reported pEC50.
1. N#Cc1c(NC(=O)Cc2ccc(S(N)(=O)=O)cc2)sc2c1CCN(Cc1cccc(F)c1F)C2    > 7.00
2. COc1cc(F)cc(CC(=O)Nc2sc3c(c2C#N)CN(Cc2cccc(F)c2)CC3)c1    6.00 to 7.00

List the reported pEC50 of each molecule below.
1. N#Cc1c(NC(=O)Cc2ccc(CS(N)(=O)=O)cc2)sc2c1CN(CC1CCCCC1)CC2
2. COc1cc(CC(=O)Nc2sc3c(c2C#N)C(C)(C)N(Cc2ccccc2)CC3)ccc1S(N)(=O)=O
3. COc1ccccc1CN1CCc2c(sc(NC(=O)Cc3ccc(S(N)(=O)=O)cc3)c2C#N)C1
4. COC(=O)c1cccc(CN2CCc3c(sc(NC(=O)Cc4ccc(S(N)(=O)=O)cc4)c3C#N)C2)c1
5. CS(=O)(=O)c1ccc(CC(=O)Nc2sc3c(c2C#N)CCN(Cc2cccc(F)c2)C3)cc1
6. Cc1cccc(CN2CCc3c(sc(NC(=O)Cc4ccc(S(N)(=O)=O)cc4)c3C#N)C2)c1F
7. COc1cc(CC(=O)N(C)c2sc3c(c2C#N)CN(CC2CCCCC2)CC3)ccc1S(N)(=O)=O

1: > 7.00; 2: 6.00 to 7.00; 3: 6.00 to 7.00; 4: > 7.00; 5: > 7.00; 6: > 7.00; 7: < 6.00

List the reported pEC50 of each molecule below.
1. N#Cc1c(NC(=O)Cc2ccc(S(N)(=O)=O)cc2)sc2c1CCN(Cc1c(Cl)cccc1Cl)C2
2. N#Cc1c(NC(=O)Cc2ccc(S(N)(=O)=O)cc2)sc2c1CCN(CC1CCCCC1)CC2
3. COCCOc1cccc(CC(=O)Nc2sc3c(c2C#N)CN(Cc2cccc(F)c2)CC3)c1
4. CC1Cc2sc(NC(=O)Cc3ccc(S(N)(=O)=O)cc3)c(C#N)c2CN1CC1CCC1 (centres unmarked)
5. CS(=O)(=O)n1ccc(CC(=O)Nc2sc3c(c2C#N)CN(Cc2cccc(F)c2)CC3)c1
6. CC1Cc2sc(NC(=O)Cc3ccc(S(N)(=O)=O)cc3)c(C#N)c2CN1CC1CCCC1 (centres unmarked) [Example 59, hydrochloride]
7. N#Cc1c(NC(=O)Cc2ccc(S(N)(=O)=O)cc2)sc2c1CCN(Cc1ccc(F)cc1Cl)C2
8. CC1Cc2sc(NC(=O)Cc3ccc(S(=O)(=O)NCC4CCCCC4)cc3)c(C#N)c2CN1CC1CCCCC1 (centres unmarked)

1: 6.00 to 7.00; 2: 6.00 to 7.00; 3: 6.00 to 7.00; 4: 6.00 to 7.00; 5: 6.00 to 7.00; 6: 6.00 to 7.00; 7: 6.00 to 7.00; 8: 6.00 to 7.00

List the reported pEC50 of each molecule below.
1. N#Cc1c(NC(=O)Cc2ccc(S(N)(=O)=O)cc2)sc2c1CN(CC1CC(F)(F)C1)CC2
2. COc1cc(CC(=O)Nc2sc3c(c2C#N)CN(CC2CCCCC2)C(C)(C)C3)ccc1S(N)(=O)=O

["6.00 to 7.00", "> 7.00"]

List the reported pEC50 of each molecule below.
1. CCC1(CC)Cc2sc(NC(=O)Cc3ccc(S(N)(=O)=O)cc3)c(C#N)c2CN1CC1CC(F)(F)C1
2. N#Cc1c(NC(=O)Cc2ccc(S(N)(=O)=O)cc2)sc2c1CCN(Cc1ccc(F)c(F)c1)C2

> 7.00
6.00 to 7.00
